Source of measurements: patent US5834461A

Tested on: vasopressin V2
Assay: Vasopressin V2 Antagonist Activity in Conscious Hydrated Rats (diuretic effect)
Assay type: in vivo, normal Sprague-Dawley rats
Conditions: 10 mg/kg orally, AVP 0.4 μg/kg i.p.
Procedure: Conscious hydrated rats are treated with compounds under study from 0.1 to 100 mg/kg orally or vehicle. Two to four rats are used for each compound. […] Urine volume is measured and osmolality analyzed by use of a Fiske One-Ten osmometer (Fiske Assoc., Norwood, Mass., USA). Urinary sodium, potassium, and chloride are analyzed by use of ion-specific electrodes in a Beckman E3 (Electrolyte 3) Analyzer. […]
Class TRUE: Osmolality at least 1000 mOsm/kg. Class FALSE: Osmolality below 1000 mOsm/kg.

> print(dat)
                       smiles.representation  experimental.target  group.label
 1  Cc1ccccc1C(=O)Nc1ccc(C(=O)N2Cc3ccccc3Sc3ccccc32)cc1       vasopressin V2         TRUE
 2  Cc1cc(C(=O)N2Cc3ccccc3Cc3ccccc32)cc(C)c1NC(=O)c1ccc(Cl)cc1Cl       vasopressin V2         TRUE
 3  O=C(Nc1ccc(C(=O)N2Cc3ccccc3Cc3ccccc32)cc1)c1cc(Cl)cc(Cl)c1       vasopressin V2        FALSE
 4  Cc1ccccc1C(=O)Nc1ccc(C(=O)N2Cc3ccccc3Cc3ccccc32)cc1       vasopressin V2        FALSE
 5  Cc1c(F)cccc1C(=O)Nc1ccc(C(=O)N2Cc3ccccc3Cc3ccccc32)cc1Cl       vasopressin V2        FALSE
 6  Cc1ccccc1COC(=O)c1ccc(C(=O)N2Cc3ccccc3Cc3ccccc32)cc1       vasopressin V2         TRUE
 7  CCOC(=O)Cn1cc2c(n1)-c1ccccc1N(C(=O)c1ccc(NC(=O)c3ccc(Cl)cc3Cl)cc1)CC2       vasopressin V2        FALSE
 8  Cc1nc2c(s1)CCN(C(=O)c1ccc(NC(=O)c3cc(F)ccc3C)cc1)c1ccccc1-2       vasopressin V2        FALSE
 9  Cc1ccccc1C(=O)Nc1ccc(C(=O)N2Cc3ccccc3-c3ccccc32)cc1       vasopressin V2         TRUE
10  Cc1c(F)cccc1C(=O)Nc1ccc(C(=O)N2Cc3ccccc3Cc3ccccc32)c(Cl)c1       vasopressin V2        FALSE
11  Cc1ccccc1C(=O)Nc1ccc(C(=O)N2Cc3ccccc3Cc3ccccc32)c(Cl)c1       vasopressin V2        FALSE
12  COc1cc(C(=O)N2Cc3ccccc3Cc3ccccc32)ccc1NC(=O)c1cc(F)ccc1C       vasopressin V2         TRUE
13  Cc1ccccc1C(=O)Nc1ccc(C(=O)N2Cc3sccc3Cc3ccccc32)cc1       vasopressin V2        FALSE
14  Cc1ccccc1C(=O)Nc1ccc(C(=O)N2Cc3ccsc3Cc3ccccc32)cc1       vasopressin V2         TRUE
15  Cc1ccccc1C(=O)N(CN(C)C)c1ccc(C(=O)N2Cc3ccccc3Cc3ccccc32)cc1       vasopressin V2        FALSE
16  Cc1cccc(NC(=O)c2ccc(C(=O)N3Cc4ccccc4Cc4ccccc43)cc2)c1C       vasopressin V2         TRUE
17  CC(C)COc1ccc([N+](=O)[O-])cc1C(=O)Nc1ccc(C(=O)N2Cc3ccccc3Cc3ccccc32)cc1       vasopressin V2        FALSE
18  Cc1ccccc1C(=O)Nc1ccc(C(=O)N2CCc3ccccc3-c3ccccc32)cc1       vasopressin V2        FALSE
19  Cc1ncc2c(n1)-c1ccccc1N(C(=O)c1ccc(NC(=O)c3ccccc3C)cc1)CC2       vasopressin V2         TRUE
20  COc1cc(C(=O)N2Cc3ccccc3Cc3ccccc32)ccc1NC(=O)c1ccccc1C       vasopressin V2        FALSE
21  Cc1nc2c(s1)CCN(C(=O)c1ccc(NC(=O)c3ccc(Cl)cc3Cl)cc1)c1ccccc1-2       vasopressin V2        FALSE
22  O=C(Nc1ccc(C(=O)N2Cc3ccccc3Cc3ccccc32)cc1)c1cccc(Cl)c1Cl       vasopressin V2        FALSE
23  Cc1ccccc1NC(=O)c1ccc(C(=O)N2Cc3ccccc3Cc3ccccc32)cc1       vasopressin V2         TRUE
24  O=C(Nc1ccc(C(=O)N2Cc3ccccc3Cc3ccccc32)cc1)c1c(Cl)cccc1Cl       vasopressin V2        FALSE

###

target: vasopressin V1 receptor (rat liver plasma membranes) (Rattus norvegicus); test: Binding Assay to Rat Hepatic V1 Receptors; conditions: 2 h; 10 μM; rat hepatic; read-out: V1, % at concentration in brackets
Sequence (P30560 whole entry): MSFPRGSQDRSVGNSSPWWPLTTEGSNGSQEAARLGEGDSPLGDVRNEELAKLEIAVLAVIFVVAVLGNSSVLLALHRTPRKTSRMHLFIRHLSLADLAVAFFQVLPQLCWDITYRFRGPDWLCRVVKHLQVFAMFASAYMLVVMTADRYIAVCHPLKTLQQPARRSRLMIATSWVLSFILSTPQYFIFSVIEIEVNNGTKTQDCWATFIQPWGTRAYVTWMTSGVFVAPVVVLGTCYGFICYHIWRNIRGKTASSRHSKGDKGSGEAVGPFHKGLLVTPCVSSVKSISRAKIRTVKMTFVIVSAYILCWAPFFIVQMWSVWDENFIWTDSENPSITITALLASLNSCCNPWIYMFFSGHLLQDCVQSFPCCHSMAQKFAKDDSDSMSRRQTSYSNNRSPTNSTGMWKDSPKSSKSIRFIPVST
Measured property: inhibition at 10 µM

> print(dat)
                                   compound    measured.property  experimental.result
1  Cc1ccccc1C(=O)Nc1c(C)cc(C(=O)N2Cc3ccccc3Cc3ccccc32)cc1C [Example 258]  inhibition at 10 µM                  75%
2  O=C(Nc1ccc(C(=O)N2Cc3ccccc3Cc3ccccc32)cc1)c1ccc(C(F)(F)F)cc1 [Example 20]  inhibition at 10 µM                  17%
3  CN(C)CC(=O)Nc1ccc(C(=O)N2Cc3ccccc3Cc3ccccc32)cc1 [Example 454]  inhibition at 10 µM                  64%

###

# Inhibition per record follows
System: vasopressin V1
Test: Vasopressin V1 Antagonist Activity in Conscious Rats (vasopressin vasopressor response)
Format: in vivo, rat (spontaneously hypertensive rats)
Conditions: 20 mg/kg i.v.; VAS 0.02 i.u./kg; 90 min
Method: Conscious rats are restrained in a supine position with elastic tape. The area at the base of the tail is locally anesthetized by subcutaneous infiltration with 2% procaine (0.2 ml). […] The animals are placed in plastic restraining cages in an upright position. The cannula is attached to a Statham P23Db pressure transducer and pulsatile blood pressure is recorded. […] Percentage of antagonism by the compound is calculated using the pre-drug vasopressin vasopressor response as 100%.
Measured property: Inhibition (%)

> print(dat)
                      smiles.representation  experimental.result
1  Cc1ccccc1C(=O)Nc1ccc(C(=O)N2Cc3ccccc3Sc3ccccc32)cc1                   11
2  Cc1cccc(NC(=O)c2ccc(C(=O)N3Cc4ccccc4Cc4ccccc43)cc2)c1C                   49
3  Cc1ccccc1NC(=O)c1ccc(C(=O)N2Cc3ccccc3Cc3ccccc32)cc1                   79
4  CSc1ccccc1C(=O)Nc1ccc(C(=O)N2Cc3ccccc3Cc3ccccc32)cc1                   68
5  O=C(Nc1ccc(C(=O)N2Cc3ccccc3Cc3ccccc32)cc1)c1ccc(Cl)cc1Cl                   55

###

system: vasopressin V2; test: Vasopressin V2 Antagonist Activity in Conscious Hydrated Rats (diuretic effect); assay type: in vivo, normal Sprague-Dawley rats; details: 10 mg/kg orally, AVP 0.4 μg/kg i.p.
Class 1: Urine Volume at least 9 ml/4 hrs.. Class -1: Urine Volume below 9 ml/4 hrs..

> print(dat)
                      smiles.representation  experimental.target  group.label
1  Cc1ncc2c(n1)-c1ccccc1N(C(=O)c1ccc(NC(=O)c3ccccc3C)cc1)CC2       vasopressin V2           -1
2  Cc1ccccc1C(=O)Nc1ccc(C(=O)N2Cc3ccccc3Cc3ccccc32)cc1       vasopressin V2            1
3  Cc1c(F)cccc1C(=O)Nc1ccc(C(=O)N2Cc3ccccc3Cc3ccccc32)cc1Cl       vasopressin V2           -1
4  O=C(O)Cn1cc2c(n1)-c1ccccc1N(C(=O)c1ccc(NC(=O)c3ccc(Cl)cc3Cl)cc1)CC2       vasopressin V2           -1
5  Cc1ccccc1C(=O)Nc1ccc(C(=O)N2CCc3ccccc3-c3ccccc32)cc1       vasopressin V2            1
6  Cc1ccccc1C(=O)Nc1ccc(C(=O)N2Cc3ccccc3Sc3ccccc32)cc1       vasopressin V2           -1
7  Cc1ccccc1C(=O)N(CN(C)C)c1ccc(C(=O)N2Cc3ccccc3Cc3ccccc32)cc1       vasopressin V2           -1
8  CC(C)COc1ccc([N+](=O)[O-])cc1C(=O)Nc1ccc(C(=O)N2Cc3ccccc3Cc3ccccc32)cc1       vasopressin V2            1

###

Observed pIC50, system human V2 vasopressin receptor (Homo sapiens).
pIC50: −log10 of the molar value.
Measured property: pIC50

> print(dat)
                      smiles.representation  experimental.result
1  Cc1ccc(F)cc1C(=O)Nc1ccc(C(=O)N2CCc3c[nH]nc3-c3ccccc32)c(Cl)c1                 8.66
2  CCOC(=O)Cn1cc2c(n1)-c1ccccc1N(C(=O)c1ccc(NC(=O)c3ccc(Cl)cc3Cl)cc1)CC2                 8.00
3  COc1cc(C(=O)N2Cc3ccccc3Cc3ccccc32)ccc1NC(=O)c1cc(F)ccc1C                 7.80
4  Cc1ccccc1C(=O)Nc1ccc(C(=O)N2Cc3sccc3Cc3ccccc32)cc1                 9.15
5  Cc1c(F)cccc1C(=O)Nc1ccc(C(=O)N2Cc3ccccc3Cc3ccccc32)c(Cl)c1                 7.55
